# credit: PubChem BioAssay (NCI)

Tested on: U251 CNS
protocol_description: NCI tumour cell line growth inhibition, 48 h
What TGI was measured for each of the following?

Q) // lookup TGI for "CC1=C(C#N)C(/C=C(\Cl)c2ccc(F)cc2)C(C#N)=C(C)N1"
A) > 100 µM

Q) Another compound: CC(=O)NC1(C)C(C)C2CC1C(C)C2(C)C (stereo not given)
A) > 100 µM

Q) Repeat for the following compound: "CCN(CC)c1ccc(N=Nc2ccc(-c3nc4cccn(C)c-4n3)cc2)cc1"
A) 16.3 µM

Q) Try the compound "[N-]=[N+]=Nc1ccc2c(c1)Sc1ccccc1N2CCCCN1CCN(C(=O)CCNC(=O)Cc2ccc(C(=O)c3ccccc3)cc2)CC1"
A) > 24.6 µM

Q) Please give the result for "O=C(NC(=O)c1cn(CCN2CCN(C(=O)NCCCCCCNC(=O)N3CCN(CCn4cc(C(=O)NC(=O)OCc5ccccc5)c(=O)[nH]c4=O)CC3)CC2)c(=O)[nH]c1=O)OCc1ccccc1" too.
A) > 100 µM

====

System: OVCAR-8 ovarian
protocol_description: NCI tumour cell line growth inhibition, 48 h
recorded_metric: TGI

Q) // returns reported TGI for input "C=CC[C@]1(C2=NC(C)(C)CO2)c2ccccc2-c2ccccc2[C@H]1C(C)=O"
A) > 52.8 µM

Q) Likewise for CC(=O)NC1C(OCc2ccccc2)OC(CO)C(O)C1OCC(=O)N[C@@H](C)C(=O)N[C@H](CCC(=O)NCCNc1ccc([N+](=O)[O-])c2[nH]c3ccccc3c(=O)c12)C(N)=O (stereo partly specified) ?
A) 61.2 µM

Q) Lookup "C=Cc1c(C)c2cc3[nH]c(cc4nc(cc5nc(cc1[nH]2)C(C)=C5CCC(=O)N(CC)CC)C(CCC(=O)N(CC)CC)=C4C)c(C)c3C=C"
A) > 100 µM

Q) Further, for "Cc1ccccc1N=Nc1c(-c2ccccc2)nn(C(=O)CC(=O)Nc2cccc(Cl)c2)c1-c1ccccc1" ?
A) > 31.6 µM

Q) Query "Cn1cncc1-c1c(F)cncc1NC(=O)c1c(N)nn2cc(F)cnc12" next
A) > 100 µM

Q) Here is the next molecule: COC(=O)N/N=C(\C)C(CN(C)C)C(c1ccccc1)c1c(O)c2ccccc2oc1=O (stereo unspecified)
A) > 100 µM

====

System: BT-549 breast
protocol_description: NCI tumour cell line growth inhibition, 48 h
recorded_metric: TGI (µM)
Lab book: enter the figure in µM, no units written.

Q) Query (molecule): "CC(=O)O[C@H](C[C@H](C(C)C)N(C)C(=O)[C@@H](NC(=O)[C@H]1CCCCN1C)C(C)C)c1cccc(C(=O)N[C@@H](Cc2ccccc2)C[C@H](C)C(=O)O)n1" ; field requested: TGI
A) 0.48

Q) Queued: "CCC(=O)Nc1ccc(NCC(=O)Nc2ccc(OC)cc2)cc1"
A) 51.6

Q) Try this molecule next: COc1ccccc1C1C(C#N)=C(N)Oc2cc(O)ccc21 (centres undefined)
A) 80.4

Q) Another: COc1cc(CN(c2ccc(C)cc2)C2OC(=O)c3ccccc32)cc(OC)c1OC (centres undefined)
A) 99.3

Q) Same question, "NCCOc1ncccc1/C=C1\c2ccccc2-c2ccc([N+](=O)[O-])cc21" this time
A) 0.994

Q) And "Nc1ccc(-c2ccc3ncc4ccc(=O)n(-c5cccc(C(F)(F)F)c5)c4c3c2)cn1" ?
A) 0.232

Q) And what about the molecule NC(CSC(c1ccccc1)(c1ccccc1)c1ccc(F)cc1)C(=O)O (centres undefined) ?
A) 86.8
